target: Serine/threonine-protein kinase PAK 6 (Homo sapiens); test: ligand-induced stabilization of human PAK6 kinase – biophysical, DSF, SYPRO orange, recombinant protein (AID 391); details: recombinant PAK6, DSF thermal shift, at 10 µM, protein 2 µM, buffer 10 mM HEPES, pH 7.5, NaCl 150 mM, run set 2, active compounds read high
# Lookup of reported Tm shift keyed by entry

Below are worked cases with known answers.
Dear colleague, I am looking for the recorded Tm shift of the following molecule: "O=Nc1c(-c2c(O)[nH]c3ccccc23)[nH]c2ccccc12" 8.7 Celsius

Ok, now "O=C1Cc2c([nH]c3ccc(Br)cc23)-c2ccccc2N1" 3.2 Celsius

Ok, now CC(O)(O)C1(O)C[C@@H]2O[C@@]1(C)n1c3ccccc3c3c4c(c5c6ccccc6n2c5c31)C(=O)NC4 (stereo partly specified) 7.7 Celsius

Ok, now OCC(O)CCO/N=C1/C(c2c(O)[nH]c3ccccc23)=Nc2ccccc21 (stereo unspecified) 3.3 Celsius

More entries:
Dear colleague, I am looking for the recorded Tm shift of the following molecule: "CCn1cnc2c(Nc3cccc(Cl)c3)nc(N[C@@H]3CCCC[C@@H]3N)nc21" 7 Celsius

Ok, now "O=C1NCc2c1c1c3ccccc3[nH]c1c1[nH]c3ccccc3c21" 3.1 Celsius

###

# Lookup of reported Tm shift keyed by entry
molecular target: Serine/threonine-protein kinase PAK 6 (Homo sapiens) (UniProt Q9NQU5); test: ligand-induced stabilization of human PAK6 kinase – biophysical, DSF, SYPRO orange, recombinant protein (AID 391); conditions: recombinant PAK6, DSF thermal shift, at 10 µM, protein 2 µM, buffer 10 mM HEPES, pH 7.5, NaCl 150 mM, run set 1, active compounds read high
Sequence (Q9NQU5 whole entry, looked up): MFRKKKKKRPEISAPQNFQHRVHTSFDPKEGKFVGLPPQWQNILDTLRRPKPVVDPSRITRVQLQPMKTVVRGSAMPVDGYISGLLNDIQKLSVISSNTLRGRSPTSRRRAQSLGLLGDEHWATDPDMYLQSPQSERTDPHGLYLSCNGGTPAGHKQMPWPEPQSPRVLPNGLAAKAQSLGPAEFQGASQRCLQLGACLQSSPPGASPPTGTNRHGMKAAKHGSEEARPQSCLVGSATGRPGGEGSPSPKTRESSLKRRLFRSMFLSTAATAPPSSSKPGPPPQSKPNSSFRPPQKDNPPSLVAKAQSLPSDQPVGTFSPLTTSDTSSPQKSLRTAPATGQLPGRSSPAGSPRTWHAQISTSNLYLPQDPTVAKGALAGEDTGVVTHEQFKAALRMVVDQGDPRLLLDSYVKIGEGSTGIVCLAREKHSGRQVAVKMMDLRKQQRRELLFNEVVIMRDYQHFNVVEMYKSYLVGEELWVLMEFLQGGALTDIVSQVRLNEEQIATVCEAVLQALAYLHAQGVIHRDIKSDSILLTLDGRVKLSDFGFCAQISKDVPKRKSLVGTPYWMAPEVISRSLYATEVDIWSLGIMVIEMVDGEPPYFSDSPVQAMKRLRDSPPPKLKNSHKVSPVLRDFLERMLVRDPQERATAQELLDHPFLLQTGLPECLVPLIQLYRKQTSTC

Dear colleague, I am looking for the recorded Tm shift of the following molecule: CC(C)C(CO)Nc1nc(Nc2cccc(Cl)c2)c2ncn(C(C)C)c2n1 (stereo not drawn) 5.88 Celsius

Ok, now "NC(=O)Nc1sc(-c2ccccc2)cc1C(N)=O" 3.43 Celsius

Ok, now "N=C(N)SCCCn1cc(C2=C(c3c[nH]c4ccccc34)C(=O)NC2=O)c2ccccc21" 3.13 Celsius

Ok, now "O=Nc1c(-c2c(O)[nH]c3ccc(S(O)(O)O)cc23)[nH]c2ccccc12" 3.24 Celsius

Ok, now "NCCCn1cc(C2=C(c3c[nH]c4ccccc34)C(=O)NC2=O)c2ccccc21" 4.48 Celsius

Ok, now "O=C1Cc2c([nH]c3ccc(N(O)O)cc23)-c2ccccc2N1" 3.92 Celsius

Ok, now "O=C1NC(=O)c2c1c1c3ccccc3n3c1c1c2c2ccccc2n1[C@@H]1CCC3O1" 6.44 Celsius

Ok, now "CC(C)n1cnc2c(Nc3cccc(Cl)c3)nc(NCCO)nc21" 4.44 Celsius

###

# Lookup of reported Tm shift keyed by entry
biological target: Serine/threonine-protein kinase PAK 6 (Homo sapiens) (UniProt Q9NQU5); experiment: ligand-induced stabilization of human PAK6 kinase – biophysical, DSF, SYPRO orange, recombinant protein (AID 391); conditions: recombinant PAK6, DSF thermal shift, at 10 µM, protein 2 µM, buffer 10 mM HEPES, pH 7.5, NaCl 150 mM, run set 2, active compounds read high

Dear colleague, I am looking for the recorded Tm shift of the following compound: "Nc1nc(Nc2ccc(S(N)(=O)=O)cc2)nn1C(=S)Nc1c(F)cccc1F" 5.64 Celsius

Ok, now "CC(C)n1cnc2c(Nc3cccc(Cl)c3)nc(NCCO)nc21" 3.2 Celsius

Ok, now "NC(=O)c1ccc(-c2nc(-c3ccc4c(c3)OCCO4)c(-c3ccccn3)[nH]2)cc1" 4.8 Celsius

// switching to the query compound
Dear colleague, I am looking for the recorded Tm shift of the following compound: "CCN(CC)CCNC(=O)c1c(C)[nH]c(/C=C2\C(=O)Nc3ccc(Cl)cc32)c1C" 3.8 Celsius

###

# Lookup of reported Tm shift keyed by entry
biological target: Serine/threonine-protein kinase PAK 6 (Homo sapiens) (UniProt Q9NQU5); assay: ligand-induced stabilization of human PAK6 kinase – biophysical, DSF, SYPRO orange, recombinant protein (AID 391); conditions: recombinant PAK6, DSF thermal shift, at 10 µM, protein 2 µM, buffer 10 mM HEPES, pH 7.5, NaCl 150 mM, run set 2, active compounds read high

Dear colleague, I am looking for the recorded Tm shift of the following molecule: "N#Cc1ccc(-c2cnc3ccc(NC4CCOCC4)nn23)cc1" 3.3 Celsius

Ok, now "Cc1cc(Nc2nc(-c3ccccc3)nc3ccccc23)n[nH]1" 5.45 Celsius

Ok, now "O=Nc1c(-c2c(O)[nH]c3cc(Br)ccc23)[nH]c2ccccc12" 3.4 Celsius

Ok, now "NCCNc1ncc(C(N)=O)c(Nc2cccc(C(F)(F)F)c2)n1" 5.21 Celsius

Ok, now "Cn1cc(/C=C2\C(=O)Nc3ccc(S(N)(=O)=O)cc32)c2ccccc21" 4.26 Celsius

More entries:
Dear colleague, I am looking for the recorded Tm shift of the following molecule: "Clc1ccc(-c2cnc3ccc(NC4CCOCC4)nn23)cc1" 3.5 Celsius
